Tested on: NOMO1
Assay: cell viability relative to DMSO control; higher = less cytotoxic
Settings: RPMI 5 mM glucose + 10% dialyzed FBS; 48 h; 0.0632 µM
Collected cell viability values appear next to each entry.
Report as a plain number; the unit % is understood.

Answered examples (4):
compound	cell viability / %
N[C@H](CSC(c1ccccc1)(c1ccccc1)c1ccccc1)C(=O)O	131
CCC(C)(C)c1ccc(CC(C)CN2C[C@@H](C)O[C@@H](C)C2)cc1 (stereo partly specified)	83.4
C[S+](=O)([O-])N1CCc2c(-c3cnc(N)nc3)nc(N3CCOCC3)nc21	93.6
C[S+]([O-])(=O)C1=CC=C(C=C1)C/2=C(/C(=O)OC2)C3=CC=CC=C3	121

Returns the measured cell viability for the input compound. Input: "CC(C)=CC[C@@H](O)C/1=C/C(=O)C2=C(O)C=CC(=C2C1=O)O"
98.1

Ok, now "CCn1c(-c2nonc2N)nc2cnc(Oc3cccc(NC(=O)c4ccc(OCCN5CCOCC5)cc4)c3)cc21"
115

What about "C=C(C)[C@H]1Cc2c(ccc3c2O[C@@H]2COc4cc(OC)c(OC)cc4[C@@H]2C3=O)O1" ?
104

Also "O=C(Nc1cc2cc[nH]c2cn1)c1ccccc1" , if possible.
103

Please do the same for "Cn1c(CNc2ccc(C(=N)N)cc2)nc2cc(C(=O)N(CCC(=O)O)c3ccccn3)ccc21" as well.
113

And what about the compound "Cc1cccc(Nc2nc(-c3ccncc3)cs2)c1" ?
125

Lookup "COc1cc(OC)c(/C=C/[S+](=O)([O-])Cc2ccc(OC)c(NCC(=O)[O][Na])c2)c(OC)c1"
122
